Please respond with reported TGI for every item in the list.
System: SK-MEL-5 melanoma
method.summary: NCI tumour cell line growth inhibition, 48 h

Reference set (3 entries):
>>> result("CCOP1(=O)CC(C)=C(Cl)C(OC)C1 (centres undefined)")
"> 100 µM"
>>> result("OCCCN=C1CCCCC1")
"> 100 µM"
>>> result("CNC(=O)OCc1cnc([N+](=O)[O-])n1C")
"> 100 µM"

Now consider the entry below.
Item O=C(/C=C/c1ccc(O)c(O)c1)N1CCN(c2ccc(Cl)cc2)CC1 has what recorded TGI?
10.2 µM

====

Test system: TK-10 renal
method.summary: NCI tumour cell line growth inhibition, 48 h
Task for the reader: assign each of the following compounds its reported GI50.

>>> result("O=c1c(I)c[nH]cc1I")
"> 100 µM"
>>> result("O=C(Nc1cccc(-n2ccc3c(NC(=O)c4ccccc4)ncnc32)c1)Nc1ccc(Cl)c(C(F)(F)F)c1")
"2.14 µM"

Now, please, on to the next compound.
# input compound: CCN(CC)c1ccc(/C=N/NC(=O)Cc2ccc(Nc3ccnc(C(F)(F)F)c3)cc2)c(O)c1 ; wanted: its GI50
0.461 µM

====

Test system: TK-10 renal
method.summary: NCI tumour cell line growth inhibition, 48 h
Consider the following molecules; for each one, report its TGI.

>>> result("Cc1cc(C)c2nc3c(c(C(O)C4CCCCN4)c2c1)CC/C3=C\\c1ccc(Cl)cc1 (stereo not drawn)")
"> 100 µM"
>>> result("O=C1CCC(c2ccccc2)=NN1c1nc2ccccc2s1")
"> 88 µM"

Please look up its TGI: N#C[S-].[La+3].c1ccc(-c2ccccn2)nc1.c1ccc(-c2ccccn2)nc1.c1ccc(-c2ccccn2)nc1
> 100 µM

====

Assignment: determine reported TGI for the given compounds.
Tested on: SK-OV-3 ovarian
method.summary: NCI tumour cell line growth inhibition, 48 h

Could you report TGI for every entry in the following list?
1. CC(=O)c1csc2c1C(=O)c1ccccc1C2=O
2. COC(=O)Cc1cc(=O)n2c3ccccc3n(C)c2c1C#N
3. Brc1ccc2[nH]c3c(C4=NCCC4)nccc3c2c1
4. CC[C@H](C)[C@H](NC(=O)C12C3C4C1C1C2C3C41NC)C(=O)N(C)[C@H](C[C@@H](OC(C)=O)c1nc(C(=O)N[C@@H](Cc2ccccc2)C[C@H](C)C(=O)OC)cs1)C(C)C (stereo not given in full)
5. COC(=O)C1=NC(=S)NC(c2ccccc2)C1c1nc2ccccc2o1 (stereo not given)

1: > 100 µM; 2: > 100 µM; 3: > 100 µM; 4: > 14.3 µM; 5: > 50 µM

====

System: NCI-H23 lung
method.summary: NCI tumour cell line growth inhibition, 48 h
experimental.readout: TGI

// each compound listed below needs its TGI
1. C[N+](C)(CCNc1ccc(NCC[N+](C)(C)Cc2ccc([N+](=O)[O-])cc2)c2c1C(=O)c1c(O)ccc(O)c1C2=O)Cc1ccc([N+](=O)[O-])cc1
2. CC(C)=CCC[C@@H](C)C1=C(O)C(N[C@H](C)c2ccccc2)=C(C)C(=O)C1=O
3. O=C(N/C(=C\c1ccc([N+](=O)[O-])cc1)c1nc2ccccc2s1)c1ccccc1
4. Cc1cc(NC(=O)NCc2ccc(N3C(N)=NC(N)=NC3(C)C)cc2)ccc1S(=O)(=O)F
5. CC(=O)N[C@@H](Cc1ccc(O)cn1)C(=O)NCc1ccc(Cl)cc1
6. O=[N+]([O-])c1ccccc1N=Nc1c(O)[nH]c2c(Cl)cccc12
7. ClC1=NSSC1(Cl)Cl
8. Nc1ncn([C@H]2CC(O)[C@@H](CO)S2)c(=O)n1 (stereo partly drawn)

1. > 50 µM
2. 34.2 µM
3. 61.7 µM
4. > 100 µM
5. > 100 µM
6. > 71.3 µM
7. > 100 µM
8. > 100 µM

Origin of the recorded values: PubChem BioAssay (NCI)
